- Measurement Target: human SGLT1 (Homo sapiens)
- Construct: expressed in transfected cells
- Sequence (P13866 1-664): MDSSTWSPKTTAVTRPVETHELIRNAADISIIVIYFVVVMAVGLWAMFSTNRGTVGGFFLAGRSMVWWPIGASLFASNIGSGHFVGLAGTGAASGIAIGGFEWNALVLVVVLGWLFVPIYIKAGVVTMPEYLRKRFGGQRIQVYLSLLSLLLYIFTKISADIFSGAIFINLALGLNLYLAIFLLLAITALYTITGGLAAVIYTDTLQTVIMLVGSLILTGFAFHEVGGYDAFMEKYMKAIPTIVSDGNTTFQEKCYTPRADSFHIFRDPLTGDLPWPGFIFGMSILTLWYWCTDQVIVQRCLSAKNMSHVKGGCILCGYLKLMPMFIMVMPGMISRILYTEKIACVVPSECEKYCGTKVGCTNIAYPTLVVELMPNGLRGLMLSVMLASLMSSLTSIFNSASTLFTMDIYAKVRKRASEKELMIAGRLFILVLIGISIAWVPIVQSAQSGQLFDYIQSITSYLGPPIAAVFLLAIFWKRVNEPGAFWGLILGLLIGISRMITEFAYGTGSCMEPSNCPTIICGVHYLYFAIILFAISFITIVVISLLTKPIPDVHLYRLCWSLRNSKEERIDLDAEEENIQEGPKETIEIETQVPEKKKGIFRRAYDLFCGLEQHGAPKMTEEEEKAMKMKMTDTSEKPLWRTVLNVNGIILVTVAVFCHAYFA
- Assay Info: Cell-based assay for sodium-dependent glucose transport (14C-AMG uptake), CHOK-SGLT1
- Condition Info: 10 uM compound; CHO-K1 cells stably expressing human SGLT1; Na-dependent 14C-AMG uptake
Assay Metric: CHOK-SGLT1 % Inh (10 uM)

Cc1cc(OC2OC(CO)C(O)C(O)C2O)c2c(CCc3ccc(NS(C)(=O)=O)cc3)n[nH]c2c1 (stereo not drawn) [Example 16]    inactive
CCc1cc(O[C@@H]2O[C@H](CO)[C@@H](O)[C@H](O)[C@H]2O)c2c(CCc3ccc4c(c3)CCO4)n[nH]c2c1 [Example 19]    inactive
COc1ccc2c(c1)CCC(CCc1n[nH]c3cc(C)cc(OC4OC(CO)C(O)C(O)C4O)c13)C2 (stereo not drawn) [Example 8]    inactive

---

- Measurement Target: human SGLT1 (Homo sapiens, UniProt P13866)
- Construct: expressed in transfected cells
- Sequence (P13866 1-664): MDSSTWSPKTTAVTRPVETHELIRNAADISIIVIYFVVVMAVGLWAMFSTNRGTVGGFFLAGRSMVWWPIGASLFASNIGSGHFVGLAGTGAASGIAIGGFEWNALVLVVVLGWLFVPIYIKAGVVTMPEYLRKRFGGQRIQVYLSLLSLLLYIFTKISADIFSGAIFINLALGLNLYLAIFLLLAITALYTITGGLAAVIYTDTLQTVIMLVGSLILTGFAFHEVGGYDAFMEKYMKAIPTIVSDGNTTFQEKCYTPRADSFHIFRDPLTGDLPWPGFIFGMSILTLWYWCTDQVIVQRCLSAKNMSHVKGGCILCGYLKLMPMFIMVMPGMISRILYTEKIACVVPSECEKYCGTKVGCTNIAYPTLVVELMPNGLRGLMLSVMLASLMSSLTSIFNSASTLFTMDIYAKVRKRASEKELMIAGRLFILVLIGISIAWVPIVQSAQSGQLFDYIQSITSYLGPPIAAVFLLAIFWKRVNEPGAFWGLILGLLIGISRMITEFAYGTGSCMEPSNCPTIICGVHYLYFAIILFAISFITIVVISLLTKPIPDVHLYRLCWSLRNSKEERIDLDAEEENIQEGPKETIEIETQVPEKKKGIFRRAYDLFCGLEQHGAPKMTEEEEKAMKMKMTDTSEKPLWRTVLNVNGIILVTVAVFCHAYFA
- Assay Info: Cell-based assay for sodium-dependent glucose transport (14C-AMG uptake), CHOK-SGLT1
- Condition Info: 10 uM compound; CHO-K1 cells stably expressing human SGLT1; Na-dependent 14C-AMG uptake; read-out: CHOK-SGLT1 % Inh (10 uM)
Overview of reported inhibition at 10 µM across a group of compounds:
Assay Metric: inhibition at 10 µM (%)

Cc1cc(OC2OC(CO)C(O)C(O)C2O)c2c(CCc3ccc4ccccc4c3)n[nH]c2c1 (centres unmarked)    18
COc1ccc2cc(CCc3n[nH]c4cc(C)cc(OC5OC(CO)C(O)C(O)C5O)c34)ccc2c1 (centres unmarked)    7
OC[C@H]1O[C@@H](Oc2cccc3[nH]nc(CCc4ccc5occc5c4)c23)[C@H](O)[C@@H](O)[C@@H]1O    43
COc1ccc(SCc2n[nH]c3cccc(OC4OC(CO)C(O)C(O)C4O)c23)cc1 (centres unmarked)    38
Cc1cc(O[C@@H]2OC(CO)[C@@H](O)[C@H](O)[C@H]2O)c2c(CCc3ccc4occc4c3)n[nH]c2c1 (some centres unmarked)    52

---

Reported IC50 by item:
- Measurement Target: human SGLT2 (Homo sapiens, UniProt P31639)
- Construct: expressed in transfected cells
- Assay Info: Cell-based assay for sodium-dependent glucose transport (14C-AMG uptake), CHOK-SGLT2
- Condition Info: CHO-K1 cells stably expressing human SGLT2; Na-dependent 14C-AMG uptake; read-out: CHOK-SGLT2 IC50 (uM) ± SEM
Assay Metric: IC50

COc1ccc(CCc2n[nH]c3cc(C)cc(OC4OC(CO)C(O)C(O)C4O)c23)cc1 (stereo not shown)    3.05 µM
CCOc1ccc(CCc2n[nH]c3cc(C)cc(OC4OC(CO)C(O)C(O)C4O)c23)cc1 (stereo not shown)    2 µM
Cc1cc(OC2OC(CO)C(O)C(O)C2O)c2c(CCc3ccc4ccccc4c3)n[nH]c2c1 (stereo not shown)    1.95 µM
OC[C@H]1O[C@@H](Oc2cccc3[nH]nc(CCc4ccc5occc5c4)c23)[C@H](O)[C@@H](O)[C@@H]1O    1.2 µM
Cc1cc(O[C@@H]2O[C@H](CO)[C@@H](O)[C@H](O)[C@H]2O)c2c(CCc3ccc4c(c3)CCO4)n[nH]c2c1    0.458 µM
COc1ccc2cc(CCc3n[nH]c4cc(C)cc(OC5OC(CO)C(O)C(O)C5O)c34)ccc2c1 (stereo not shown)    1 µM
CCc1cc(O[C@@H]2O[C@H](CO)[C@@H](O)[C@H](O)[C@H]2O)c2c(CCc3ccc4c(c3)CCO4)n[nH]c2c1    0.532 µM

---

- Measurement Target: human SGLT2 (Homo sapiens, UniProt P31639)
- Construct: expressed in transfected cells
- Sequence (P31639 1-672): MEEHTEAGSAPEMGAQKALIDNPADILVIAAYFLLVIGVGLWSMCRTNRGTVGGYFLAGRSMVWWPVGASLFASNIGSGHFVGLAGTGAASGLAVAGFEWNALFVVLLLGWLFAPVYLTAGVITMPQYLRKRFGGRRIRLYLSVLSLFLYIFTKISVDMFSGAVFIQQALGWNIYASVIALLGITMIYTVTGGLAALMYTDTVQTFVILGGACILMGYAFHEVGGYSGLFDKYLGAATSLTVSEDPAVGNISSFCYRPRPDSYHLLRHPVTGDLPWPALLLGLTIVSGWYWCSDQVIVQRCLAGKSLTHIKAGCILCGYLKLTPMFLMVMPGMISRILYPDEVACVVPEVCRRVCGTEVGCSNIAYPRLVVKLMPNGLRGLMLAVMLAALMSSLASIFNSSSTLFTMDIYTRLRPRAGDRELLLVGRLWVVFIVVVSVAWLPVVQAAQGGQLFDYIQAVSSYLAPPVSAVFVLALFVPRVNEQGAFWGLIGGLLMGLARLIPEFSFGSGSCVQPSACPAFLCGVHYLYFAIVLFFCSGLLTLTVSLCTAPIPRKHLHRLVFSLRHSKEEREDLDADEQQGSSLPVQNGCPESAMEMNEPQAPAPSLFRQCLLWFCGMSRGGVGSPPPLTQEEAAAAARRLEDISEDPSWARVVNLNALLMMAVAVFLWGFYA
- Assay Info: Cell-based assay for sodium-dependent glucose transport (14C-AMG uptake), CHOK-SGLT2
- Condition Info: CHO-K1 cells stably expressing human SGLT2; Na-dependent 14C-AMG uptake; read-out: CHOK-SGLT2 IC50 (uM) ± SEM
- Excerpt: Cloning of the human SGLT1 and human SGLT2 cDNAs and construction of the mammalian expression vector: The human SGLT1 cDNA (Genbank M24847) was cloned from human small intestine. Human SGLT2 cDNA (Genbank M95549) was cloned from human kidney. […] After aspiration, cells were solubilized using Microscint 20 (Packard, Meriden, Conn.) and Na-dependent ^14C-AMG uptake was quantified by measuring radioactivity. Plates were counted in a TopCount (Packard, Meriden, Conn.). […]
Measured IC50 of individual entries
Assay Metric: IC50 (µM)

Cc1cc(O[C@@H]2O[C@H](CO)[C@@H](O)[C@H](O)[C@H]2O)c2c(CCc3ccc4c(c3)OCCO4)n[nH]c2c1    1.59
Cc1cc(OC2OC(CO)C(O)C(O)C2O)c2c(CCc3ccc4c(c3)CCO4)nn(C)c2c1 (centres unmarked)    0.754
CC(=O)OC[C@H]1O[C@@H](Oc2cc(C)cc3[nH]nc(CCc4ccc5occc5c4)c23)[C@H](O)[C@@H](O)[C@@H]1O    1.5
Cc1cc(OC2OC(CO)C(O)C(O)C2O)c2c(CCc3ccc4c(c3)CCCC4)n[nH]c2c1 (centres unmarked)    3.25
COc1ccc(Cc2n[nH]c3cc(C)cc(O[C@@H]4O[C@H](CO)[C@@H](O)[C@H](O)[C@H]4O)c23)cc1    0.959

All values here come from patent US7816331B2.
